Target: EGFR del19/T790M/C797S (Homo sapiens, UniProt P00533, C797S/DEL746-750/T790M)
Sequence (P00533 with tags, fused parts or gaps DEL746-750/T790M/C797S): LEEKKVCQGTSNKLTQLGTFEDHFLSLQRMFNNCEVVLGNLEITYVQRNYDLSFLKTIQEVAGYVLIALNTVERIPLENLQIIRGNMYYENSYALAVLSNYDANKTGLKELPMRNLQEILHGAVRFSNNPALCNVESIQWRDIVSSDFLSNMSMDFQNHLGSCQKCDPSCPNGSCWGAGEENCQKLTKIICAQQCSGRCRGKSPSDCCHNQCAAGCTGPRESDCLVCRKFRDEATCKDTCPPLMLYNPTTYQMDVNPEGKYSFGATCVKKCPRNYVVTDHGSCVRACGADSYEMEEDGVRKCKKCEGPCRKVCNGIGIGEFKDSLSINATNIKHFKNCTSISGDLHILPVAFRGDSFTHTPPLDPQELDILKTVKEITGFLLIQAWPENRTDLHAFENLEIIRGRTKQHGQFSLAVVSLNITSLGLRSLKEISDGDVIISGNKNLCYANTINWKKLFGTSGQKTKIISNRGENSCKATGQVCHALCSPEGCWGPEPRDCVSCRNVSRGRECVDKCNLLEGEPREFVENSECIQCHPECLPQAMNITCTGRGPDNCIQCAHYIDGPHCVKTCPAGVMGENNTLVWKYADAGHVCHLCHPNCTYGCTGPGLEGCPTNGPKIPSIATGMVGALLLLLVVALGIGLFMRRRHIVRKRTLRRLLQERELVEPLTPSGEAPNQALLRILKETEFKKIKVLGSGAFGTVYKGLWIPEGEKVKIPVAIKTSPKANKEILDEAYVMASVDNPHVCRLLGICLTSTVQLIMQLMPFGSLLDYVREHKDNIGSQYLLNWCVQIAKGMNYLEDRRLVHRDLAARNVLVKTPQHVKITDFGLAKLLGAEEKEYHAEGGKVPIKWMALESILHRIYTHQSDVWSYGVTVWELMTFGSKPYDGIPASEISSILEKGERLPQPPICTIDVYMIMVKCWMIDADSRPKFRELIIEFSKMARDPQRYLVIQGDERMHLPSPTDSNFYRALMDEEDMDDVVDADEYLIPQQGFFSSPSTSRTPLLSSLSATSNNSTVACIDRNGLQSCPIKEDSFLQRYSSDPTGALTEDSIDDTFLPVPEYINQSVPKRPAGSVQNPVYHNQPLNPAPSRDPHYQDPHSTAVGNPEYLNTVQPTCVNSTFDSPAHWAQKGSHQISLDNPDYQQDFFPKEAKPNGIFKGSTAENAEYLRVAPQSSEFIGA
Assay: Biochemical EGFR kinase assay (Lance Ultra TR-FRET), triple mutant del19/T790M/C797S
Settings: Km ATP; read-out: IC50 del19/T790M/C797S (nM) Km ATP
# IC50 annotations
READOUT: IC50

1. COc1ncc(-c2nccc(Nc3cc(N[C@H]4CC[C@@](C)(O)CC4)c(-c4ccn(C(F)F)n4)cn3)n2)cn1 [Example 312]: 1.3 nM
2. Cn1nc(-c2cnc(Nc3ccnc(-c4cnn(S(=O)(=O)C5CC5)c4)n3)cc2NN2CCC(O)CC2)cc1C(F)(F)F [Example 160]: 1 nM
3. Cn1ccc(-c2cnc(Nc3ccnc(-c4cnn(S(=O)(=O)C5CC5)c4)n3)cc2N[C@H]2CC[C@@H](NCC(F)F)CC2)n1 [Example 45]: 0.6 nM
4. C=CCn1cc(-c2nccc(Nc3cc(N[C@H]4CC[C@@](C)(O)CC4)c(-c4ccn(C(F)F)n4)cn3)n2)cn1 [Example 116]: 0.6 nM
5. CN[C@H]1CC[C@@H](Oc2cc(Nc3ccnc(-c4cnn(S(=O)(=O)C5CC5)c4)n3)ncc2-c2cnn(C(F)F)c2)CC1 [Example 69]: 0.3 nM
6. CN(C)C(=O)[C@H]1CC[C@@H](Nc2cc(Nc3ccnc(-c4cnn(S(=O)(=O)C5CC5)c4)n3)ncc2-c2ccn(C(F)F)n2)CC1 [Example 201]: 0.8 nM
7. CN(C)CC1CCC(Nc2cc(Nc3ccnc(-c4cnn(S(=O)(=O)C5CC5)c4)n3)ncc2-c2ccn(C3COC3)n2)CC1 (centres unmarked) [Example 284]: 0.1 nM
8. Cn1ccc(-c2cnc(Nc3ccnc(-c4cnn(S(=O)(=O)C5CC5)c4)n3)cc2N[C@H]2CC[C@]3(CCC(=O)N3)CC2)n1 [Example 44]: 0.2 nM
